Items are presented alongside their recorded viability, T/C.
# Tested on: IGROV1 complex spheroids (HUVEC, MSC), viability % test/control
# test.method.notes: Anticancer human tumor IGROV1 cell line growth inhibition [GQUAD];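 also: spheroids exposed to compounds for 7 days before readout; 100% = DMSO vehicle control viability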
# measurement.setup: second compound 1 µM; first compound 0.316 µM; active compounds read low
endpoint.name: viability, T/C (%)

compound: O=c1[nH]cc(F)c(=O)[nH]1 + Cc1[nH]c2ccc(F)cc2c1-c1nc2c3cccnc3c3ncccc3c2[nH]1
target.or.system: IGROV1 complex spheroids (HUVEC, MSC), viability % test/control
experimental.result: 4.49

compound: Cc1[nH]c2ccccc2c1CCNCc1ccc(/C=C/C(=O)NO)cc1 + Cc1cnc(CNC(=O)c2c(=O)c3ccc(N4CCCN(C)CC4)nc3n3c2sc2ccccc23)cn1
target.or.system: IGROV1 complex spheroids (HUVEC, MSC), viability % test/control
experimental.result: 0.04

compound: CC1COCCN1c1cc(C2(S(C)(=N)=O)CC2)nc(-c2ccnc3[nH]ccc23)n1 (stereo unspecified) + Cc1[nH]c2ccc(F)cc2c1-c1nc2c3cccnc3c3ncccc3c2[nH]1
target.or.system: IGROV1 complex spheroids (HUVEC, MSC), viability % test/control
experimental.result: 4.11

compound: O=C(NO)c1cnc(N2CCN(S(=O)(=O)c3ccc4ccccc4c3)CC2)nc1 + CN(C)c1ccc(Nc2c3ccc(NC(=O)CCN4CCCC4)cc3nc3cc(NC(=O)CCN4CCCC4)ccc23)cc1
target.or.system: IGROV1 complex spheroids (HUVEC, MSC), viability % test/control
experimental.result: 3.31

compound: COc1cc(C2c3cc4c(cc3C(OC3OC5COC(C)OC5C(O)C3O)C3COC(=O)C23)OCO4)cc(OC)c1O (stereo unspecified) + Cc1[nH]c2ccc(F)cc2c1-c1nc2c3cccnc3c3ncccc3c2[nH]1
target.or.system: IGROV1 complex spheroids (HUVEC, MSC), viability % test/control
experimental.result: 4.59

compound: CC1COCCN1c1cc(C2(S(C)(=N)=O)CC2)nc(-c2ccnc3[nH]ccc23)n1 (stereo unspecified) + CN(C)c1ccc(Nc2c3ccc(NC(=O)CCN4CCCC4)cc3nc3cc(NC(=O)CCN4CCCC4)ccc23)cc1
target.or.system: IGROV1 complex spheroids (HUVEC, MSC), viability % test/control
experimental.result: 69.8
